Assay: Antiproliferative activity against human SJG2 cells assessed as cell growth inhibition at 25 uM incubated for 72 hrs by MTT assay relative to control
Type: functional
Settings: SJ-G2
measure.name: inhibition at 25 µM (%)
Numbers only; they are read as %.

Field: example entries. Status: answers known.
>>> df
                                   molecule  u  meas_value
0  O=C1NC(C2CC=CCC2)Nc2ccccc21 (configuration not stated)  %          87
1    O=c1[nH]c(/C=C/c2ccc(Br)cc2)nc2ccccc12  %          76

Incoming: Assign inhibition at 25 µM to the following record: O=C1NC(CCc2ccccc2)Nc2ccccc21 (configuration not stated)
Outgoing: 16

###

Tested on: A2780
Assay: Antiproliferative activity against human A2780 cells assessed as cell growth inhibition at 25 uM incubated for 72 hrs by MTT assay relative to control
Type: functional
measure.name: inhibition at 25 µM

The cases that follow already have their inhibition at 25 µM on record.
>>> print(df.to_string())
                                   compound  meas_value
0  O=C1NC(c2cccc3ccccc23)Nc2ccccc21 (stereo not drawn)      > 100%
1     O=c1[nH]c(/C=C/c2ccc(O)cc2)nc2ccccc12      > 100%

Field: next compound
Incoming: Return reported inhibition at 25 µM. Input compound: O=c1[nH]c(/C=C/c2cccc(O)c2)nc2ccccc12
Outgoing: > 100%

###

Assay: Cytotoxicity against human MCF-10A cells assessed as cell growth inhibition at 25 uM incubated for 72 hrs by MTT assay relative to control
Format: toxicity, cell-based
Give fulfilled when the value for inhibition at 72 h, 25 µM is at least 90%. Give not fulfilled when it is less.

Field: example entries. Status: answers known.
                                   compound    label_class
0         Cc1ccc(/C=C/c2nc(O)c3ccccc3n2)cc1  not fulfilled
1  O=C1NC(c2cccc([N+](=O)[O-])c2)Nc2ccccc21 (configuration not stated)  not fulfilled

Incoming: Please tell me: is the compound O=C1NC(c2ccccc2Br)Nc2ccccc21 (configuration not stated) at or over 90% in terms of inhibition at 72 h, 25 µM?
Outgoing: fulfilled

Incoming: Entry Oc1nc(-c2ccncc2)nc2ccccc12 : is its inhibition at 72 h, 25 µM no less than 90%?
Outgoing: not fulfilled

Incoming: In plain terms: is recorded inhibition at 72 h, 25 µM at least 90% for O=C1NC(c2ccccc2C(=O)O)Nc2ccccc21 (configuration not stated) ?
Outgoing: not fulfilled

Incoming: Determine whether this compound has inhibition at 72 h, 25 µM no lower than 90%: COc1cccc(C2NC(=O)c3ccccc3N2)c1 (configuration not stated)
Outgoing: fulfilled

Incoming: Reported inhibition at 72 h, 25 µM reaches at least 90% for O=C1NC(CCc2ccccc2)Nc2ccccc21 (configuration not stated) ?
Outgoing: not fulfilled

Incoming: Decide: is the reported value of inhibition at 72 h, 25 µM for COc1cccc(/C=C/c2nc3ccccc3c(=O)[nH]2)c1 equal to or greater than 90%?
Outgoing: fulfilled

Incoming: # bool: inhibition at 72 h, 25 µM of O=C1NC(c2ccc(Br)o2)Nc2ccccc21 (configuration not stated) >= 90%
Outgoing: not fulfilled

Incoming: Has O=c1[nH]c(/C=C/c2ccc(Br)cc2)nc2ccccc12 a recorded inhibition at 72 h, 25 µM greater than or equal to 90%?
Outgoing: not fulfilled
